Measured values drawn from ChEMBL document CHEMBL3217668 for this set.

Kindly state CC50 for each of the entries shown.
System: PC-3
assay-summary: Cytotoxicity against human PC3 cells assessed as cell survival after 48 hrs by MTT assay
Assay type: functional
condition-parameters: PC-3, 48 h, read-out: LC50 (the source's name)

// CC50 lookup, compound = `O=Cc1c(Nc2ccccc2)oc2cc(Cl)ccc2c1=O` , result: 2.5 µM

// CC50 lookup, compound = `O=Cc1c(Nc2ccccc2)oc2ccc(Cl)cc2c1=O` , result: 8.3 µM

// CC50 lookup, compound = `CN(c1ccccc1)c1oc2ccccc2c(=O)c1C=O` , result: 0.5 µM

// CC50 lookup, compound = `O=Cc1coc2ccc(Cl)cc2c1=O` , result: 5.7 µM
